# procedure_details: inside-out patch clamp, G-V Boltzmann fits, 0 Ca2+
# condition_label: glycan lost; control: γ2 WT, untreated cells
reported_endpoint: other: BK channel gating modulation

BK channel γ2 subunit (LRRC52): N148Q (protein) parent chain: MSLASGPGPGWLLFSFGMGLVSGSKCPNNCLCQAQEVICTGKQLTEYPLDIPLNTRRLFLNENRITSLPAMHLGLLSDLVYLDCQNNRIREVMDYTFIGVFKLIYLDLSSNNLTSISPFTFSVLSNLVQLNIANNPHLLSLHKFTFANTTSLRYLDLRNTGLQTLDSAALYHLTTLETLFLSGNPWKCNCSFLDFAIFLIVFHMDPSDDLNATCVEPTELTGWPITRVGNPLRYMCITHLDHKDYIFLLLIGFCIFAAGTVAAWLTGVCAVLYQNTRHKSSEEDEDEAGTRVEVSRRIFQTQTSSVQEFPQLI :: decreases
BK channel γ2 subunit (LRRC52): N112Q (protein) parent chain: MSLASGPGPGWLLFSFGMGLVSGSKCPNNCLCQAQEVICTGKQLTEYPLDIPLNTRRLFLNENRITSLPAMHLGLLSDLVYLDCQNNRIREVMDYTFIGVFKLIYLDLSSNNLTSISPFTFSVLSNLVQLNIANNPHLLSLHKFTFANTTSLRYLDLRNTGLQTLDSAALYHLTTLETLFLSGNPWKCNCSFLDFAIFLIVFHMDPSDDLNATCVEPTELTGWPITRVGNPLRYMCITHLDHKDYIFLLLIGFCIFAAGTVAAWLTGVCAVLYQNTRHKSSEEDEDEAGTRVEVSRRIFQTQTSSVQEFPQLI :: decreases
